Assay: Cellular uptake in human PMNC assessed as compound retention at 3 to 20 uM incubated for 3 hrs followed by drug washout measured after 3 hrs by LC-MS/MS analysis relative to initial drug accumulation
Type: ADME
Measured endpoint: Drug uptake (%)

Solved entries:
- Smiles representation: "CCCCCCCC(=O)NCCCN1C[C@H](C)C[C@@](C)(O)[C@H](O[C@@H]2O[C@H](C)C[C@H](N(C)C)[C@H]2O)[C@@H](C)[C@H](O[C@H]2C[C@@](C)(OC)[C@@H](O)[C@H](C)O2)[C@@H](C)C(=O)O[C@H](CC)[C@@](C)(O)[C@H](O)[C@H]1C"
  Measured endpoint: "Drug uptake"
  Test result: 77
- Smiles representation: "CC[C@H]1OC(=O)[C@H](C)[C@@H](O[C@H]2C[C@@](C)(OC)[C@@H](O)[C@H](C)O2)[C@H](C)[C@@H](O[C@@H]2O[C@H](C)C[C@H](N(C)C)[C@H]2O)[C@](C)(O)C[C@@H](C)CN(C)[C@H](C)[C@@H](O)[C@]1(C)O"
  Measured endpoint: "Drug uptake"
  Test result: 79

(A) CCCCCCCC(=O)NCCCN(C)[C@H]1C[C@@H](C)O[C@@H](O[C@@H]2[C@@H](C)[C@H](O[C@H]3C[C@@](C)(OC)[C@@H](O)[C@H](C)O3)[C@@H](C)C(=O)O[C@H](CC)[C@@](C)(O)[C@H](O)[C@@H](C)N(C)C[C@H](C)C[C@@]2(C)O)[C@@H]1O
(B) CC[C@H]1OC(=O)[C@H](C)[C@@H](O[C@H]2C[C@@](C)(OC)[C@@H](O)[C@H](C)O2)[C@H](C)[C@@H](O[C@@H]2O[C@H](C)C[C@H](N(C)C)[C@H]2O)[C@](C)(OC)C[C@@H](C)C(=O)[C@H](C)[C@@H](O)[C@]1(C)O
Problem: Which is greater in Drug uptake, the first item A or the second item B ? Let me know the label of the one you choose.
Result: A
(A: 85%, B: 2%)

---

Assay: Cellular uptake in normal human lung fibroblast at 3 to 20 uM after 3 hrs by LC-MS/MS analysis relative to azithromycin
Type: ADME
Measured endpoint: Drug uptake (%)

(A) CC[C@H]1OC(=O)[C@H](C)[C@@H](O[C@H]2C[C@@](C)(OC)[C@@H](O)[C@H](C)O2)[C@H](C)[C@@H](O[C@@H]2O[C@H](C)C[C@H](N(C)C)[C@H]2O)[C@](C)(OC)C[C@@H](C)C(=O)N[C@H](C)[C@@H](O)[C@]1(C)O
(B) CCCCCCCC(=O)NCCCN(C)[C@H]1C[C@@H](C)O[C@@H](O[C@@H]2[C@@H](C)[C@H](O[C@H]3C[C@@](C)(OC)[C@@H](O)[C@H](C)O3)[C@@H](C)C(=O)O[C@H](CC)[C@@](C)(O)[C@H](O)[C@@H](C)N(C)C[C@H](C)C[C@@]2(C)O)[C@@H]1O
Problem: Hey, which is lower on measured Drug uptake, A or B ? Let me know the label of the one you choose.
Result: A
(A: 9%, B: 1699%)

(A) CC[C@H]1OC(=O)[C@H](C)[C@@H](O[C@H]2C[C@@](C)(OC)[C@@H](OC(=O)CN(CC)CC)[C@H](C)O2)[C@H](C)[C@@H](O[C@@H]2O[C@H](C)C[C@H](N(C)C)[C@H]2O)[C@](C)(OC)C[C@@H](C)C(=O)N[C@H](C)[C@@H](O)[C@]1(C)O
(B) CCCCCCCC(=O)NCCCN1C[C@H](C)C[C@@](C)(O)[C@H](O[C@@H]2O[C@H](C)C[C@H](N(C)C)[C@H]2O)[C@@H](C)[C@H](O[C@H]2C[C@@](C)(OC)[C@@H](O)[C@H](C)O2)[C@@H](C)C(=O)O[C@H](CC)[C@@](C)(O)[C@H](O)[C@H]1C
Problem: Hey, which is lower on measured Drug uptake, A or B ? Let me know the label of the one you choose.
Result: B
(B: 122%, A: 256%)

(P) CC[C@H]1OC(=O)[C@H](C)[C@@H](O)[C@H](C)[C@@H](O)[C@](C)(O)C[C@@H](C)CN(C)[C@H](C)[C@@H](O)[C@]1(C)O
(Q) CC[C@H]1OC(=O)[C@H](C)[C@@H](O[C@H]2C[C@@](C)(OC)[C@@H](O)[C@H](C)O2)[C@H](C)[C@@H](O[C@@H]2O[C@H](C)C[C@H](N(C)C)[C@H]2O)[C@](C)(O)C[C@@H](C)CN(C)[C@H](C)[C@@H](O)[C@]1(C)O
Problem: Which is greater in Drug uptake, the first item P or the second item Q ? Let me know the label of the one you choose.
Result: Q

(A) CC[C@H]1OC(=O)[C@H](C)[C@@H](O[C@H]2C[C@@](C)(OC)[C@@H](O)[C@H](C)O2)[C@H](C)[C@@H](O[C@@H]2O[C@H](C)C[C@H](N(C)C)[C@H]2O)[C@](C)(OC)C[C@@H](C)C(=O)[C@H](C)[C@@H](O)[C@]1(C)O
(B) CC[C@H]1OC(=O)[C@H](C)[C@@H](O)[C@H](C)[C@@H](O[C@@H]2O[C@H](C)C[C@H](N(C)C)[C@H]2O)[C@](C)(O)C[C@@H](C)CN(C)[C@H](C)[C@@H](O)[C@]1(C)O
Problem: Hey, which is lower on measured Drug uptake, A or B ? Let me know the label of the one you choose.
Result: B
